These data points were gathered from the NIST ThermoML archive (doi:10.1016/j.jct.2018.09.003).

We begin with a simple list: items and their reported activity coefficient.
assay: activity coefficient (dimensionless); of the first substance listed, at infinite dilution; xn = mol fraction of the nth substance listed; conditions: 343.15 K; 101.33 kPa; Liquid; Chromatography; x1 = 0
valueKind: activity coefficient

{"columns": ["molecule", "valueMeasured"],
 "data": [
  ["CCCO [propan-1-ol] + CCCCCCCCn1cc[n+](C)c1C.F[B-](F)(F)F", 2.1],
  ["CCC(C)O (configuration not stated) [butan-2-ol] + CCCCCCCCn1cc[n+](C)c1C.F[B-](F)(F)F", 2.51],
  ["C1=CCCCC1 [cyclohexene] + CCCCCCCCn1cc[n+](C)c1C.F[B-](F)(F)F", 7.63],
  ["CCCCO [butan-1-ol] + CCCCCCCCn1cc[n+](C)c1C.F[B-](F)(F)F", 2.4],
  ["CC(C)=O [acetone] + CCCCCCCCn1cc[n+](C)c1C.F[B-](F)(F)F", 1.42],
  ["CCOC(C)=O [ethyl acetate] + CCCCCCCCn1cc[n+](C)c1C.F[B-](F)(F)F", 2.96],
  ["CC(C)CO [2-methyl-1-propanol] + CCCCCCCCn1cc[n+](C)c1C.F[B-](F)(F)F", 2.3],
  ["CCCCCCC [heptane] + CCCCCCCCn1cc[n+](C)c1C.F[B-](F)(F)F", 24.3],
  ["CCCCC [pentane] + CCCCCCCCn1cc[n+](C)c1C.F[B-](F)(F)F", 14.3],
  ["CC1CCCCC1 [methylcyclohexane] + CCCCCCCCn1cc[n+](C)c1C.F[B-](F)(F)F", 14.7],
  ["ClC(Cl)(Cl)Cl [tetrachloromethane] + CCCCCCCCn1cc[n+](C)c1C.F[B-](F)(F)F", 4.23],
  ["CCCCCCCCCC [decane] + CCCCCCCCn1cc[n+](C)c1C.F[B-](F)(F)F", 51.5],
  ["CC#N [acetonitrile] + CCCCCCCCn1cc[n+](C)c1C.F[B-](F)(F)F", 1.05],
  ["CCc1ccccc1 [ethylbenzene] + CCCCCCCCn1cc[n+](C)c1C.F[B-](F)(F)F", 4.5],
  ["ClC(Cl)Cl [trichloromethane] + CCCCCCCCn1cc[n+](C)c1C.F[B-](F)(F)F", 1.08],
  ["Cc1cccc(C)c1 [1,3-dimethylbenzene] + CCCCCCCCn1cc[n+](C)c1C.F[B-](F)(F)F", 4.35],
  ["CCCCCCCC [octane] + CCCCCCCCn1cc[n+](C)c1C.F[B-](F)(F)F", 31.8]
]}

* * *

experiment: activity coefficient (dimensionless); of the first substance listed, at infinite dilution; xn = mol fraction of the nth substance listed; details: 353.15 K; 101.33 kPa; Liquid; Chromatography; x1 = 0
valueKind: activity coefficient

{"columns": ["molecule", "valueMeasured"],
 "data": [
  ["CC#N [acetonitrile] + CCCCCCCCn1cc[n+](C)c1C.F[B-](F)(F)F", 1.07],
  ["CCO [ethanol] + CCCCCCCCn1cc[n+](C)c1C.F[B-](F)(F)F", 1.54],
  ["Cc1ccccc1C [1,2-dimethylbenzene] + CCCCCCCCn1cc[n+](C)c1C.F[B-](F)(F)F", 3.87],
  ["C1=CCCCC1 [cyclohexene] + CCCCCCCCn1cc[n+](C)c1C.F[B-](F)(F)F", 7.52],
  ["CCCCCCCC [octane] + CCCCCCCCn1cc[n+](C)c1C.F[B-](F)(F)F", 31.3]
]}

* * *

test: activity coefficient (dimensionless); of the first substance listed, at infinite dilution; xn = mol fraction of the nth substance listed; conditions: 333.15 K; 101.33 kPa; Liquid; Chromatography; x1 = 0
Param threshold (4) applies to activity coefficient; output class 1 when value >= threshold, class 0 when value < threshold.

{"columns": ["compound", "answerLabel"],
 "data": [
  ["CCOC(C)=O [ethyl acetate] + CCCCCCCCn1cc[n+](C)c1C.F[B-](F)(F)F", "class 0"],
  ["CC(C)CC(C)(C)C [2,2,4-trimethylpentane] + CCCCCCCCn1cc[n+](C)c1C.F[B-](F)(F)F", "class 1"],
  ["CC#N [acetonitrile] + CCCCCCCCn1cc[n+](C)c1C.F[B-](F)(F)F", "class 0"],
  ["CC(C)CO [2-methyl-1-propanol] + CCCCCCCCn1cc[n+](C)c1C.F[B-](F)(F)F", "class 0"],
  ["C1CCCCC1 [cyclohexane] + CCCCCCCCn1cc[n+](C)c1C.F[B-](F)(F)F", "class 1"],
  ["Cc1ccc(C)cc1 [1,4-dimethylbenzene] + CCCCCCCCn1cc[n+](C)c1C.F[B-](F)(F)F", "class 1"],
  ["c1ccccc1 [benzene] + CCCCCCCCn1cc[n+](C)c1C.F[B-](F)(F)F", "class 0"],
  ["CCCCCCCC [octane] + CCCCCCCCn1cc[n+](C)c1C.F[B-](F)(F)F", "class 1"],
  ["CCC(C)O (centres undefined) [butan-2-ol] + CCCCCCCCn1cc[n+](C)c1C.F[B-](F)(F)F", "class 0"],
  ["ClC(Cl)(Cl)Cl [tetrachloromethane] + CCCCCCCCn1cc[n+](C)c1C.F[B-](F)(F)F", "class 1"],
  ["CCCCCCC [heptane] + CCCCCCCCn1cc[n+](C)c1C.F[B-](F)(F)F", "class 1"],
  ["CCCO [propan-1-ol] + CCCCCCCCn1cc[n+](C)c1C.F[B-](F)(F)F", "class 0"],
  ["CCCCO [butan-1-ol] + CCCCCCCCn1cc[n+](C)c1C.F[B-](F)(F)F", "class 0"],
  ["Cc1cccc(C)c1 [1,3-dimethylbenzene] + CCCCCCCCn1cc[n+](C)c1C.F[B-](F)(F)F", "class 1"]
]}

* * *

assay: activity coefficient (dimensionless); of the first substance listed, at infinite dilution; xn = mol fraction of the nth substance listed; details: 333.15 K; 101.33 kPa; Liquid; Chromatography; x1 = 0
Rule: activity coefficient below 2 gives Condition met, anything at or above gives Condition not met.

{"columns": ["compound", "answerLabel"],
 "data": [
  ["CCCCCCCCCC [decane] + CCCCCCCCn1cc[n+](C)c1C.F[B-](F)(F)F", "Condition not met"],
  ["CCCCCCCCC [nonane] + CCCCCCCCn1cc[n+](C)c1C.F[B-](F)(F)F", "Condition not met"],
  ["CC1CCCCC1 [methylcyclohexane] + CCCCCCCCn1cc[n+](C)c1C.F[B-](F)(F)F", "Condition not met"],
  ["CC(C)O [propan-2-ol] + CCCCCCCCn1cc[n+](C)c1C.F[B-](F)(F)F", "Condition not met"],
  ["ClCCl [dichloromethane] + CCCCCCCCn1cc[n+](C)c1C.F[B-](F)(F)F", "Condition met"],
  ["CCO [ethanol] + CCCCCCCCn1cc[n+](C)c1C.F[B-](F)(F)F", "Condition met"],
  ["C1COCCO1 [1,4-dioxane] + CCCCCCCCn1cc[n+](C)c1C.F[B-](F)(F)F", "Condition met"],
  ["CCCCCC [hexane] + CCCCCCCCn1cc[n+](C)c1C.F[B-](F)(F)F", "Condition not met"],
  ["CCc1ccccc1 [ethylbenzene] + CCCCCCCCn1cc[n+](C)c1C.F[B-](F)(F)F", "Condition not met"],
  ["C1=CCCCC1 [cyclohexene] + CCCCCCCCn1cc[n+](C)c1C.F[B-](F)(F)F", "Condition not met"]
]}
